# Measured on: T1, recombinant human CD39 (R&D Systems) (human, UniProt P49961 38-478)
# T1 construct: bought; also called CD39 antigen (R&D Systems); ENTPD1
# T1 sequence: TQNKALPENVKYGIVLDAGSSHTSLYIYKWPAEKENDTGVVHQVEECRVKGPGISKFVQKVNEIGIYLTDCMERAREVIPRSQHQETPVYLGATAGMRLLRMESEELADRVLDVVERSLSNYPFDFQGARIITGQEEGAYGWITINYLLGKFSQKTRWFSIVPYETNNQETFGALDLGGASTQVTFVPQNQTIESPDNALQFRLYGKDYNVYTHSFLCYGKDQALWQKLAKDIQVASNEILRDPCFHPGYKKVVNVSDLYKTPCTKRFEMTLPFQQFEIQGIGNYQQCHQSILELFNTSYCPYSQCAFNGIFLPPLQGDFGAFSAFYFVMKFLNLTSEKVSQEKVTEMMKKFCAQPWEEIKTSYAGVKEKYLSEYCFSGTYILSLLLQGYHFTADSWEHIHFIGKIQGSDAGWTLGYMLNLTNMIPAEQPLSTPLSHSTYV
# Method notes: BLI (Octet QK384); antibody on anti-mouse IgG Fc sensor, recombinant human CD39 in solution
# Lookup of reported kon keyed by entry
Provide the reading as a plain figure in M⁻¹ s⁻¹.

Binder | Assay endpoint | Quantity unit | Recorded result
anti-CD39 monoclonal antibody 5-71A (antibody, V domains shown, purified mouse hybridoma antibody, IgG2a isotype; also called R21-5-71A; R29-5-71A) VH: DVQLVESGGGLVQPGGSRKLSCAASGFTFSSFGMHWVRQAPEKGLELVAYISSGSTIRYYSDTVKGRFTISRDNPKNTLFLQMTSLRSEDTAMYYCARFLYEGFRYGMDYWGQGTSVTVSS VL: DVLMTQTPLSLPVSLGDQASISCRSSQSIVHSNGNTYLEWYLQKPGQSPKLLIYKVSNRFSGVPDRFSGSGSGTDFTLKISRVEAEDLGIYYCFQGSHVPNTFGGGTKLEIK | kon | M⁻¹ s⁻¹ | 71100

Recorded kon (binder anti-CD39 monoclonal antibody 5-165C (antibody, V domains shown, purified mouse hybridoma antibody, IgG2a isotype; also called R21-5-165C; R29-5-165C) VH: EVQLVESGGDLVKPGGSLKLSCAAFGFTFSRYGMSWVRQTPDKRLEWVATITSGGIYTYYPDSVKGRFTISRDNAKNTLYLQMSSLKSEETAMYYCARHGQFGDYYGMDYWGQGTSVTVSS VL: DVVMTQTPLSLPVSLGDQASISCRSSQSLLHSNGNTYLHWYLQKPGQSPKLLIYKVSNRFSGVPDRFSGSGSGTDFTLKISRVEAEDLGVYFCSQSTHVPYTFGGGTKLEIK ): 77400

The binder listed as anti-CD39 monoclonal antibody 5-13A (antibody, V domains shown, purified mouse hybridoma antibody, IgG2a isotype; also called R21-5-13A; R29-5-13A) VH: QVQLQQSGPELVKPGASVRISCKASGYTFTGYYVHWVKQRPGQGLEWIGWIYPGNVNTKYNEKFKAKATLTADKSSSTGYMQLSRLTSEDSAVYFCARSPYYGTTYYYTMDYWGQGTSVTVSS VL: EIVLTQSPAFMAASPGEKVTITCSVSLIISSRNLHWYQQKSETSPKPWIYGTSNLASGVPVRFSGSGSGTSYSLTISSMEAEDAATYYCQQWSDYPLTFGSGTKLEIK has a reported kon of 105000

Summary for this binder, anti-CD39 monoclonal antibody 9-8B (antibody, V domains shown, purified mouse hybridoma antibody, IgG2a isotype; also called R21-9-8B; R29-9-8B) VH: QIQLVQSGPELKKPGETVKISCKASGYTFTHYGMNWVKQAPGKGLKWMGWINTYTGELTYADDFKGRFAFSLETSASTAYLQINNLKNEDTATYFCARRAYYRYDYVMDYWGQGTSVTVSS VL: DIVMTQSQKFMSTSVGDRVSVTCKASHNVGTNVAWYQQKPGQSPKALIYSASYRYSGVPGRFTGSGSGTDFTLTISNVQSEDLAEYFCHQYNNYPYTFGGGTKLEIK : kon is 273000

Numbers sourced from patent US20170335007A1.
